- tested_system: Metabotropic glutamate receptor 5 (Homo sapiens)
- assay: Positive allosteric modulation of human mGluR5 expressed in CHO-K1 cells
- Type: cell-based
pEC50: −log10 of the molar value.
endpoint_name: pEC50

- substance_smiles: "Nc1nccc(/C=C/c2ccccc2)n1"
  result_value: "< 5.00"

----------
- tested_system: Metabotropic glutamate receptor 5 (Homo sapiens, UniProt P41594)
- Sequence (P41594 whole entry): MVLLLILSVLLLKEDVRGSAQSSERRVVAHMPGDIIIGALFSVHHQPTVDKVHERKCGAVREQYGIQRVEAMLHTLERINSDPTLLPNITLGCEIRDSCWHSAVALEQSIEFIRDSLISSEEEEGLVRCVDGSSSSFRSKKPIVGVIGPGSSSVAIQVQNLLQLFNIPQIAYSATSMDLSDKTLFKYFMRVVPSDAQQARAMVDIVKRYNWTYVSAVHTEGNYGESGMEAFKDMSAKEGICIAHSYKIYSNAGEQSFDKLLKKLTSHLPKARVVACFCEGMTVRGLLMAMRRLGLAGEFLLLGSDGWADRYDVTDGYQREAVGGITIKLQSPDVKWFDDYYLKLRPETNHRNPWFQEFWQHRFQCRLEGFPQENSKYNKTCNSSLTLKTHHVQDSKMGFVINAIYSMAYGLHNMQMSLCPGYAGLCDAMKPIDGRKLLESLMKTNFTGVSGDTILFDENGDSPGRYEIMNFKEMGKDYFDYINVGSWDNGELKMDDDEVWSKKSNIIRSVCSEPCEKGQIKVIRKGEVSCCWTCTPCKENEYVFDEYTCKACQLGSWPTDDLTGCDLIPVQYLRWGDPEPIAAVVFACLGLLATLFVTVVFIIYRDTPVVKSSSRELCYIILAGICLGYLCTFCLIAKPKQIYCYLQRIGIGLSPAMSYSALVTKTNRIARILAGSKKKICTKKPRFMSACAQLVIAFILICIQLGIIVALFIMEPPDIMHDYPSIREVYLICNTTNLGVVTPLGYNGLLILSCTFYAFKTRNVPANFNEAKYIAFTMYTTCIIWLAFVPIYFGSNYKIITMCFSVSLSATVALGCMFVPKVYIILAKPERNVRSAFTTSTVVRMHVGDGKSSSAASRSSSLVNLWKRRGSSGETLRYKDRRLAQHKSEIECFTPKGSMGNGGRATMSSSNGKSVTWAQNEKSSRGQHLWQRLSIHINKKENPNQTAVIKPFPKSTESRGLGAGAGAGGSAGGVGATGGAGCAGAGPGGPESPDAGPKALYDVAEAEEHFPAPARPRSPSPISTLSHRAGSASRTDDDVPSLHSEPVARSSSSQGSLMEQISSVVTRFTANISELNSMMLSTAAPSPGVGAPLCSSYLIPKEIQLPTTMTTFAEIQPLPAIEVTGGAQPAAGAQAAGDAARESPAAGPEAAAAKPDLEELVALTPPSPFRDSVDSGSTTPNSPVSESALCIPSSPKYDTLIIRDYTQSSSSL
- assay: Negative allosteric modulation of human mGluR5 expressed in CHO-K1 cells
pIC50: −log10 of the molar value.

- substance_smiles: "Nc1nccc(/C=C/c2ccccc2)n1"
  pIC50: "< 4.52"

----------
- tested_system: Metabotropic glutamate receptor 4 (Homo sapiens)
- Sequence (Q14833 whole entry): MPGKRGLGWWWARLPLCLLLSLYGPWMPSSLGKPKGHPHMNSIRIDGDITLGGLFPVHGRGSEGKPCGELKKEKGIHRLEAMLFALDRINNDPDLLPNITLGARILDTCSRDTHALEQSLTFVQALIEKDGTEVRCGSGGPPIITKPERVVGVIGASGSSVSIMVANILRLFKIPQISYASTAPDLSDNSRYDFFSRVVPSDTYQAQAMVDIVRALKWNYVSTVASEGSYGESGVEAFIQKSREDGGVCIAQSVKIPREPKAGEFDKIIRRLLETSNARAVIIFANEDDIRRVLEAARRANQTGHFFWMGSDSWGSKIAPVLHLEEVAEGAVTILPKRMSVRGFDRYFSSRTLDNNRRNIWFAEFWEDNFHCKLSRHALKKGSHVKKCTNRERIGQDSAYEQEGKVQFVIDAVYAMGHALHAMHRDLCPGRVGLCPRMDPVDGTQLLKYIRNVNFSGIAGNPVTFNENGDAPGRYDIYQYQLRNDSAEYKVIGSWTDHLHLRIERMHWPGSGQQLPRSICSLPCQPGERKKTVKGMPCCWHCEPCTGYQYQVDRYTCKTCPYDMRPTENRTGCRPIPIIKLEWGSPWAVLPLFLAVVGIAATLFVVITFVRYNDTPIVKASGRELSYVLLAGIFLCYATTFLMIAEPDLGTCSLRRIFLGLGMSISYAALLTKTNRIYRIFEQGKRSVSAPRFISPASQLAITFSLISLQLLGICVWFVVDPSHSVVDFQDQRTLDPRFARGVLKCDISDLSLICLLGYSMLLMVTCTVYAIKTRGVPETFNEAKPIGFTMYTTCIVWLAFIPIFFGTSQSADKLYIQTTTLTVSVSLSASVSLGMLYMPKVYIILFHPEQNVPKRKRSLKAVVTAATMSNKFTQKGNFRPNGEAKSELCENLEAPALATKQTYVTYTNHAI
- assay: Agonist activity at human mGluR4 expressed in CHO-K1 cells
- Format: functional, cell-based
pEC50: −log10 of the molar value.

- substance_smiles: "Nc1nccc(/C=C/c2ccccc2)n1"
  pEC50: "< 4.52"

----------
- tested_system: Metabotropic glutamate receptor 5 (Rattus norvegicus)
- Sequence (P31424 whole entry): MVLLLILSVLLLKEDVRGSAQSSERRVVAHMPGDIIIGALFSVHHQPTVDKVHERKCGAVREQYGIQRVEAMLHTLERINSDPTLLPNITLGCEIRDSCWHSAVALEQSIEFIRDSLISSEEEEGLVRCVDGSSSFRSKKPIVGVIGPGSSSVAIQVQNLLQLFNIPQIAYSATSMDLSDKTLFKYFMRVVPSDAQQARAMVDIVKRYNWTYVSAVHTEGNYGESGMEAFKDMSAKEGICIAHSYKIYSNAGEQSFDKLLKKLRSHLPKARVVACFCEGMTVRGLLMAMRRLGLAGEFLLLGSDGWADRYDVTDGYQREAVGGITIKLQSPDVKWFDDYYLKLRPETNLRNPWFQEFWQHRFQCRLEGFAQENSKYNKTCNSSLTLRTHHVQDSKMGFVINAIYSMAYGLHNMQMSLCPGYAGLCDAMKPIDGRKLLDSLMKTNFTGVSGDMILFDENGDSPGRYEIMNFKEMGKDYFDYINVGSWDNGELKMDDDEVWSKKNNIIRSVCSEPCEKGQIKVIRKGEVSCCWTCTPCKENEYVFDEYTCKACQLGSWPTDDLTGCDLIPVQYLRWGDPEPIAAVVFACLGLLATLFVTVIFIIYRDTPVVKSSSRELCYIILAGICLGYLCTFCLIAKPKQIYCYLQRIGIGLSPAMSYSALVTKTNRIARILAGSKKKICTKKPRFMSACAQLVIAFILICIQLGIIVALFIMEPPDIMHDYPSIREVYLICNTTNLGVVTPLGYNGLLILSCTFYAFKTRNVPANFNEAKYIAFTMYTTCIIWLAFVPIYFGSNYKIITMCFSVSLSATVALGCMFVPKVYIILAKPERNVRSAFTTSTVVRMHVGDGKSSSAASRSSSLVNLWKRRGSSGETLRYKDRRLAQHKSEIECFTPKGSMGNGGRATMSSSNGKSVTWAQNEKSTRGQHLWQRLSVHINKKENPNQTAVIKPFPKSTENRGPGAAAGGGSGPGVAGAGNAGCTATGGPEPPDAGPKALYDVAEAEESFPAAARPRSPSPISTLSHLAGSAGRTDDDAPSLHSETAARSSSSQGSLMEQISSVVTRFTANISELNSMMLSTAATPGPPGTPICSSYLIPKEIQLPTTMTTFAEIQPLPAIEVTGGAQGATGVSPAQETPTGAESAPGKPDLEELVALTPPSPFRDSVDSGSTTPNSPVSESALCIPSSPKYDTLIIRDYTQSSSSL
- assay: Negative allosteric modulation of rat mGluR5 expressed in CHO-K1 cells
endpoint_name: IC50

- substance_smiles: "Nc1nccc(/C=C/c2ccccc2)n1"
  endpoint_name: "IC50"
  result_value: "> 10 µM"

----------
- assay: Plasma protein binding in rat
- Type: ADME, cell-free
- experimental_context: read-out: PPB (converted)
endpoint_name: fraction unbound

- substance_smiles: "Nc1nccc(/C=C/c2ccccc2)n1"
  endpoint_name: "fraction unbound"
  result_value: 0.1

----------
Recorded measurements of EC50, one per entry
- tested_system: Metabotropic glutamate receptor 4 (Homo sapiens)
- assay: Positive allosteric modulation of human mGluR4 expressed in CHO-K1 cells assessed as decrease in forskolin-induced intracellular cAMP accumulation after 1 hr by fluorescence assay
- Type: functional, cell-based
endpoint_name: EC50

- substance_smiles: "Nc1nccc(CCc2ccccc2)n1"
  result_value: "> 30 µM"
- substance_smiles: "Nc1cccc(/C=C/c2ccccc2)n1"
  result_value: "5.8 µM"
- substance_smiles: "Nc1nc(O)cc(/C=C/c2ccccc2)n1"
  result_value: "> 30 µM"
- substance_smiles: "Nc1nccc(-c2cc3ccccc3o2)n1"
  result_value: "4.9 µM"
- substance_smiles: "Nc1nccc(/C=C/c2ccc(F)cc2)n1"
  result_value: "4.5 µM"
- substance_smiles: "Nc1nccc(/C=C/c2ccncc2)n1"
  result_value: "> 30 µM"
- substance_smiles: "Cc1cccc(/C=C/c2ccnc(N)n2)c1"
  result_value: "> 30 µM"
- substance_smiles: "Nc1nccc(/C=C/c2ccccn2)n1"
  result_value: "11.7 µM"
- substance_smiles: "N#Cc1cccc(/C=C/c2ccnc(N)n2)c1"
  result_value: "> 30 µM"
- substance_smiles: "C(=C\\c1ccnc(-c2ccccc2)n1)/c1ccccc1"
  result_value: "> 30 µM"
- substance_smiles: "CS(=O)(=O)Nc1nccc(/C=C/c2ccccc2)n1"
  result_value: "> 30 µM"
- substance_smiles: "Cc1nc(N)nc(/C=C/c2ccccc2)c1C"
  result_value: "1.6 µM"
- substance_smiles: "Nc1nccc(-c2ccc3ccccc3c2)n1"
  result_value: "> 30 µM"
- substance_smiles: "Sc1nccc(/C=C/c2ccccc2)n1"
  result_value: "7.8 µM"
- substance_smiles: "Cc1ccc(/C=C/c2ccnc(N)n2)cc1"
  result_value: "> 30 µM"
- substance_smiles: "Nc1cc(/C=C/c2ccccc2)nc(N)n1"
  result_value: "> 30 µM"
- substance_smiles: "Nc1nccc(/C=C/c2cccs2)n1"
  result_value: "4.1 µM"
- substance_smiles: "Nc1ncc([C@@H]2C[C@H]2c2ccccc2)cn1"
  result_value: "> 30 µM"
- substance_smiles: "Nc1nccc(/C=C/c2ccccc2F)n1"
  result_value: "2.9 µM"
- substance_smiles: "Nc1nc(/C=C/c2ccccc2)cc(C(F)(F)F)n1"
  result_value: "0.6 µM"
- substance_smiles: "Nc1nccc(/C=C/c2cccnc2)n1"
  result_value: "16.4 µM"
- substance_smiles: "Cc1ccccc1/C=C/c1ccnc(N)n1"
  result_value: "> 30 µM"
- substance_smiles: "Nc1nccc(-c2cc3ccccc3s2)n1"
  result_value: "> 30 µM"
- substance_smiles: "Nc1ncc(Br)c(/C=C/c2ccccc2)n1"
  result_value: "1.3 µM"
- substance_smiles: "Nc1ncc(Cl)c(/C=C/c2ccccc2)n1"
  result_value: "1.6 µM"
- substance_smiles: "N#Cc1ccc(/C=C/c2ccnc(N)n2)cc1"
  result_value: "> 30 µM"
- substance_smiles: "Cc1cnc(N)nc1/C=C/c1ccccc1"
  result_value: "0.2 µM"
- substance_smiles: "Nc1cncc(/C=C/c2ccccc2)n1"
  result_value: "15.8 µM"
- substance_smiles: "Nc1nccc(/C=C/c2ccco2)n1"
  result_value: "9.4 µM"
- substance_smiles: "Cc1nccc(/C=C/c2ccccc2)n1"
  result_value: "6.9 µM"

Where do the numbers come from? From ChEMBL document CHEMBL1208783.
